- Test system: 233499-124-R-J3-PDC complex spheroid viability, % test/control;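 note: spheroids exposed to agents for one week before readout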
- Procedure Text: Anticancer human tumor 233499-124-R-J3-PDC patient-derived colon adenocarcinoma cell line growth inhibition
- Assay Setup: second compound 0.1 µM; first compound 0.0949 µM; stronger effect = lower value
Metric Name: viability, T/C (%)
Give a bare numeral; the unit % is implied.

Looking up COc1cc(C2c3cc4c(cc3C(OC3OC5COC(C)OC5C(O)C3O)C3COC(=O)C23)OCO4)cc(OC)c1O (stereo not drawn) + NC1CC1c1ccc(-c2cccc(O)c2)cc1 , I found its viability, T/C recorded as 86.5

# viability, T/C (compound: Nc1ccn(C2OC(CO)C(O)C2(F)F)c(=O)n1 (stereo not drawn) + NC1CCC(NC2CC2c2ccccc2)CC1 ) is 30.3

Short answer for Nc1ccccc1NC(=O)c1ccc(CNC(=O)OCc2cccnc2)cc1 + NC1CCC(NC2CC2c2ccccc2)CC1 : viability, T/C was 106
